Biological target: the molecule itself
Assay: FRET or BRET
No end group written: not given here.
endpoint label: stoichiometry N

INSERT INTO measurements (protein, endpoint_label, reported_value) VALUES
  ('YFP-phospholamban (PLB) (natural protein, UniProt P26678 1-52, looked up, cysteine pairing not given here) {YFP}-MEKVQYLTRSAIRRASTIEMPQQARQKLQNLFINFCLILICLLLICIIVMLL', 'stoichiometry N', '> 2'),
  ('YFP-endoregulin (ELN) (natural protein, UniProt P0DI80 1-62, looked up) MDQLVFKETIWNDAFWQNPWDQGGLAVIILFITAVLLLILFAIVFGLLTSTENTQCEAGEEE', 'stoichiometry N', '> 2'),
  ('YFP-ALN (another-regulin) (natural protein, UniProt Q8WVX3 1-66, looked up) MEVDAPGVDGRDGLRERRGFSEGGRQNFDVRPQSGANGLPKHSYWLDLWLFILFDVVVFLFVYFLP', 'stoichiometry N', '> 2'),
  ('MTGKNWILISTTTPKSLEDEIVGRLLKILFVIFVDLISIIYVVITS (natural protein, UniProt P0DMT0 1-46, looked up) [YFP-myoregulin (MLN)]', 'stoichiometry N', '> 2');

Cited source: paper PMC6885550
